Parameter Measured: melting point

Compound	Endpoint Result
COc1ccc(S(=O)(=O)Nc2ccc3c(ccn3CCN(C)C)c2)cc1 [Example 23e]	141 to 144 °C
O=S(=O)(Nc1ccc2[nH]cc(CCN3CCOCC3)c2c1)c1cccc2ccccc12	218 to 220 °C
O=S(=O)(Nc1ccc2[nH]cc(CCN3CCOCC3)c2c1)c1cccc2cccnc12	234 to 235 °C
CN(C)CCc1c[nH]c2ccc(NS(=O)(=O)c3ccc4ccccc4c3)cc12	180 to 190 °C
Cl.O=C(CN1CCC(N2C(=O)OCc3ccccc32)CC1)Nc1ccc(C(F)(F)F)cc1	276 to 284 °C
CCN(CC)CCCc1c[nH]c2ccc(NS(=O)(=O)c3ccc4ccccc4c3)cc12 [Example 42c]	128 to 130 °C
Cc1c(S(=O)(=O)Nc2ccc3[nH]cc(C4CCN5CCCC5C4)c3c2)sc2ccc(Cl)cc12 (stereo not drawn) [Example 38c]	142 to 144 °C
CN(C)CCn1ccc2cc(NS(=O)(=O)c3cccc4ccccc34)ccc21	179 to 181 °C
Cc1c(S(=O)(=O)Nc2cccc3c2ccn3CCN(C)C)sc2ccc(Cl)cc12	78 to 80 °C
Cc1cc2cc(NS(=O)(=O)c3csc4ccccc34)ccc2n1CCN(C)C [Example 40e]	167 to 169 °C
CC(C(=O)Nc1ccc2c(c1)-c1ccccc1C2=O)N1CCC(N2C(=O)OCc3ccccc32)CC1.Cl (stereo not drawn)	242 to 252 °C
CN1CCC(c2c[nH]c3ccc(NS(=O)(=O)c4ccc(-c5ccccc5)cc4)cc23)CC1 [Example 15c]	247 to 248 °C
Cc1cc2cc(NS(=O)(=O)c3ccc(-c4ccccc4)cc3)ccc2n1CCN(C)C [Example 36e]	176 to 177 °C
Cl.O=C(CN1CCC(N2C(=O)OCc3ccccc32)CC1)Nc1ccc2c(c1)C(=O)c1ccccc1C2=O	280 to 282 °C
CN(C)CCn1ccc2ccc(NS(=O)(=O)c3ccc4ccccc4c3)cc21	140 to 143 °C
Cl.O=C(CN1CCC(N2C(=O)OCc3ccccc32)CC1)Nc1ccc2c(c1)-c1ccccc1C2O (stereo not drawn)	270 to 273 °C
Cl.O=C(CN1CCC(N2C(=O)OCc3ccccc32)CC1)Nc1ccccc1C(=O)c1ccccc1	211 to 216 °C
O=S(=O)(Nc1ccc2c(ccn2CCCN2CCCCC2)c1)c1ccc(-c2ccccc2)cc1 [Example 47e]	148 to 150 °C

Values from patent US20070059364A1
